Assay: NCI Yeast Anticancer Drug Screen. Data for the rad50 strain (AID 155);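 further: 0% = growth of vehicle-only cultures of the same strain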
Conditions: S. cerevisiae rad50 strain growth inhibition; at 5.0 µM (retest, dose inferred, filed as 0.5); hits give high values
Description: Growth inhibition of yeast strains with defined genetic alterations is measured as a screen for potential anti-cancer activity. Selected strains with alterations in DNA damage repair or cell cycle control were exposed to compounds and growth inhibition was measured relative to vehicle treated controls. The strain used in this assay is rad50
This is part of a sample that, as a whole, favours compounds with a hit. Of some 79,000 tested, about 15% had one in any assay.

{"compound": "NC(=Nc1nc(-c2ccccn2)cc2ccccc12)c1ccccn1", "measure unit": "%", "growth inhibition": 54}
{"compound": "Clc1ccc(-n2ncc3c(NCCCN4CCOCC4)ncnc32)cc1", "measure unit": "%", "growth inhibition": 3}
{"compound": "CC(C)(C)c1ccc(O)c(Br)c1", "measure unit": "%", "growth inhibition": 0}
{"compound": "CC(C)=C1C=C2CC[C@@H]3[C@](C)(CCC[C@@]3(C)C(=O)O)[C@H]2CC1", "measure unit": "%", "growth inhibition": -1}
{"compound": "CCN(CC)CCNc1ccc([N+](=O)[O-])c2sc3ccccc3c(=O)c12", "measure unit": "%", "growth inhibition": 46}
{"compound": "CCCCCCCCCCCC[n+]1ccc(CCCCCCCCC)cc1", "measure unit": "%", "growth inhibition": 99}
{"compound": "c1ccc2sc(SSN3CC4CCC(CC4)C3)nc2c1", "measure unit": "%", "growth inhibition": 37}
{"compound": "NNc1ccc(Cl)cc1Cl", "measure unit": "%", "growth inhibition": 79}
{"compound": "COc1c(C)c2c(c(O)c1C/C=C(\\C)CCC(=O)O)C(=O)OC2", "measure unit": "%", "growth inhibition": 31}
{"compound": "CCC1CCCCN1C(=S)N/N=C(\\C)c1ccccn1 (centres undefined)", "measure unit": "%", "growth inhibition": 29}
{"compound": "CN(C)CNC(=S)S", "measure unit": "%", "growth inhibition": 98}
{"compound": "O=C(CCl)N1c2ccccc2Sc2c1ccc1ccccc21", "measure unit": "%", "growth inhibition": 25}
{"compound": "COc1cc([C@@H]2c3cc4c(cc3[C@H](OC3OC5COC(c6ccccc6)OC5C(O)C3O)[C@H]3COC(=O)[C@H]23)OCO4)cc(OC)c1OC (some centres undefined)", "measure unit": "%", "growth inhibition": -4}
{"compound": "O=C(c1ccccc1)N(CCCl)C(=O)N(CCCl)C(=O)c1ccccc1", "measure unit": "%", "growth inhibition": 47}
{"compound": "O=C1C=CC2C3C(=O)N(c4ccccc4)C(=O)C3C1N2Cc1ccccc1 (centres undefined)", "measure unit": "%", "growth inhibition": 18}
{"compound": "O=C(Nc1ccc(Cl)c(Cl)c1)Nc1ccccc1O", "measure unit": "%", "growth inhibition": 5}
{"compound": "NC(=S)Nc1ccc2c(c1)Cc1ccccc1-2", "measure unit": "%", "growth inhibition": 2}
{"compound": "OC(c1cc(-c2ccc(Cl)cc2)nc2c(Cl)cccc12)C1CCCCN1 (centres undefined)", "measure unit": "%", "growth inhibition": 73}
{"compound": "C(CCc1nn[nH]n1)CCC1CCCCC1", "measure unit": "%", "growth inhibition": 13}
{"compound": "CC12CCC(O)CC1=CCC1C2CCC2(C)C3=NN=CC3CC12 (centres undefined)", "measure unit": "%", "growth inhibition": 38}
{"compound": "Oc1c(C(Nc2ccccc2)c2ccccc2)ccc2cccnc12 (centres undefined)", "measure unit": "%", "growth inhibition": -5}
{"compound": "O=C(O)c1cccc2cccc(-c3c4ccc(=O)c(O)c-4oc4c(O)c(O)ccc34)c12", "measure unit": "%", "growth inhibition": 86}
{"compound": "CC(C)(C)c1ccc(CCO)cc1", "measure unit": "%", "growth inhibition": -10}
{"compound": "S=C1NC2=C(COc3ccccc32)C(c2ccc(Cl)cc2)N1 (centres undefined)", "measure unit": "%", "growth inhibition": 59}

The reported numbers originate from PubChem BioAssay (NCI).
